# STUDY SYSTEM: T1, Human PDGF-BB (human, UniProt P01127 82-190)
# T1 construct: Dimer of two B chains; also called hPDGF-BB; huPDGF-BB
# T1 sequence (P01127 82-190 limits assumed): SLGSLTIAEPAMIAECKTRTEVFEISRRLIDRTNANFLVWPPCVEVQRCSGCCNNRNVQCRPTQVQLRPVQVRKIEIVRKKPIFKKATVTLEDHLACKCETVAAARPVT
# EXPERIMENTAL PROTOCOL: Biacore SPR, antibody captured by anti-human Fc, PDGF-BB as analyte
MEASURED METRIC: kon

Exercise: Fill in the blank: the reported kon of CL-33587-IgG (antibody, V domains shown) VH: EVTLRESGPALVKPTQTLTLTCTFSGFSLSTYGMGVGWIRQPPGKALEWLANIWWDDDKYYNPSLKNRLTISKDTSKNQVVLTMTNMDPVDTATYYCARIQSMWTRYDFDYWGQGTMVTVSS VL: EIVLTQSPGTLSLSPGERATLSCERSSGDIGDSYVSWYQQKPGQAPRLVIYADDQRPSGIPDRFSGSGSGTDFTLTISRLEPEDFAVYYCQSYDINIDIVFGGGTKVEIK is ____.
Key: ≥ 9e+07 M⁻¹ s⁻¹

Exercise: Fill in the blank: the reported kon of CL-33578-IgG (antibody, V domains shown) VH: EVTLRESGPALVKPTQTLTLTCTFSGFSLSTYGMGVGWIRQPPGKALEWLANIWWDDDKYYNPSLKNRLTISKDTSKNQVVLTMTNMDPVDTATYYCARIQSGWTNYEFDYWGQGTMVTVSS VL: EIVLTQSPGTLSLSPGERATLSCERSSGDIGDSYVSWYQQKPGQAPRLVIYADDQRPSGIPDRFSGSGSGTDFTLTISRLEPEDFAVYYCQSYDINIDIVFGGGTKVEIK is ____.
Key: ≥ 9e+07 M⁻¹ s⁻¹

Exercise: Fill in the blank: the reported kon of CL-33682-IgG (antibody, V domains shown) VH: EVTLRESGPALVKPTQTLTLTCTFSGFSLSTYGMGVGWIRQPPGKALEWLANIWWDDDKYYNPSLKNRLTISKDTSKNQVVLTMTNMDPVDTATYYCARIESSWTSYSFDYWGQGTMVTVSS VL: EIVLTQSPGTLSLSPGERATLSCERSSGSNYDTYVSWYQQKPGQAPRLLIYADDLRASGIPDRFSGSGSGTDFTLTISRLEPEDFAVYYCQSYGINIDVVFGGGTKVEIK is ____.
Key: ≥ 9e+07 M⁻¹ s⁻¹

Exercise: Fill in the blank: the reported kon of CL-33820-IgG (antibody, V domains shown) VH: EVTLRESGPALVKPTQTLTLTCTFSGFSLSTYGMGVGWIRQPPGKALEWLANIWWDDDKYYNPSLKNRLTISKDTSKNQVVLTMTNMDPVDTATYYCARIESSFTSYSFDYWGQGTMVTVSS VL: EIVLTQSPGTLSLSPGERATLSCKRSSGSIYDTYVSWYQQKPGQAPRLVIYSDDQRPSGIPDRFSGSGSGTDFTLTISRLEPEDFAVYYCQSYDLTIDITFGGGTKVEIK is ____.
Key: ≥ 9.8e+07 M⁻¹ s⁻¹
